- System: SNB-19 CNS
- experimentalDetails: NCI-60 one-dose screen, 48 h (100 = growth as untreated, 0 = no growth, -100 = all killed)
- conditionSummary: 10 µM unless noted
Compounds without any hit were thinned out: in the full panel of roughly 83,000, 20% have a hit.
Mark satisfied for reported growth of 90% or greater; mark not satisfied for anything smaller.

| structureSmiles | testSystem | assignedLabel |
| --- | --- | --- |
| O=c1c2cc(C(F)(F)F)ccc2sc2c(NCCCNCCO)nc3ccccc3c12 | SNB-19 CNS | not satisfied |
| C#C[C@]1(O)CC[C@H]2[C@@H]3CC=C4c5sc(Nc6ccccc6)nc5CC[C@]4(C)[C@H]3CC[C@@]21C | SNB-19 CNS | not satisfied |
| Fc1cc(-c2nnc3n2NC(=Nc2ccc(Cl)cc2)CS3)c(Cl)cc1Cl | SNB-19 CNS | satisfied |
| CCN(CC)S(=O)(=O)c1ccc(NC(=O)CSc2nnc(C)n2-c2ccccc2)cc1 | SNB-19 CNS | satisfied |
